- Measurement Notes: Microsomal stability, mouse liver microsomes
- Type: in vitro ADME
Readout Name: half-life

# get_value(readout='half-life', item= Cc1c(Cl)cccc1NC(=O)c1cc(-c2ccc(F)c(O)c2)on1 [Compound 60] )
< 15 min

###

- Measurement Notes: Plasma protein binding, human
- Type: in vitro ADME
Readout Name: fraction unbound
Answers are plain numbers.

# get_value(readout='fraction unbound', item= `Cc1c(Cl)cccc1NC(=O)c1cc(-c2ccc(F)c(O)c2)on1` )
0.11

###

- Measurement Notes: Plasma stability, mouse
- Format: in vitro ADME
Readout Name: half-life

# get_value(readout='half-life', item= `Cc1c(Cl)cccc1NC(=O)c1cc(-c2ccc(F)c(O)c2)on1` )
< 30 min

###

- Measurement Notes: Microsomal stability, human liver microsomes
- Assay type: in vitro ADME
Readout Name: half-life

# get_value(readout='half-life', item= `Cc1c(Cl)cccc1NC(=O)c1cc(-c2ccc(F)c(O)c2)on1` )
> 1 h
